- tested.on: UniProt:O00329
- Sequence (O00329 whole entry): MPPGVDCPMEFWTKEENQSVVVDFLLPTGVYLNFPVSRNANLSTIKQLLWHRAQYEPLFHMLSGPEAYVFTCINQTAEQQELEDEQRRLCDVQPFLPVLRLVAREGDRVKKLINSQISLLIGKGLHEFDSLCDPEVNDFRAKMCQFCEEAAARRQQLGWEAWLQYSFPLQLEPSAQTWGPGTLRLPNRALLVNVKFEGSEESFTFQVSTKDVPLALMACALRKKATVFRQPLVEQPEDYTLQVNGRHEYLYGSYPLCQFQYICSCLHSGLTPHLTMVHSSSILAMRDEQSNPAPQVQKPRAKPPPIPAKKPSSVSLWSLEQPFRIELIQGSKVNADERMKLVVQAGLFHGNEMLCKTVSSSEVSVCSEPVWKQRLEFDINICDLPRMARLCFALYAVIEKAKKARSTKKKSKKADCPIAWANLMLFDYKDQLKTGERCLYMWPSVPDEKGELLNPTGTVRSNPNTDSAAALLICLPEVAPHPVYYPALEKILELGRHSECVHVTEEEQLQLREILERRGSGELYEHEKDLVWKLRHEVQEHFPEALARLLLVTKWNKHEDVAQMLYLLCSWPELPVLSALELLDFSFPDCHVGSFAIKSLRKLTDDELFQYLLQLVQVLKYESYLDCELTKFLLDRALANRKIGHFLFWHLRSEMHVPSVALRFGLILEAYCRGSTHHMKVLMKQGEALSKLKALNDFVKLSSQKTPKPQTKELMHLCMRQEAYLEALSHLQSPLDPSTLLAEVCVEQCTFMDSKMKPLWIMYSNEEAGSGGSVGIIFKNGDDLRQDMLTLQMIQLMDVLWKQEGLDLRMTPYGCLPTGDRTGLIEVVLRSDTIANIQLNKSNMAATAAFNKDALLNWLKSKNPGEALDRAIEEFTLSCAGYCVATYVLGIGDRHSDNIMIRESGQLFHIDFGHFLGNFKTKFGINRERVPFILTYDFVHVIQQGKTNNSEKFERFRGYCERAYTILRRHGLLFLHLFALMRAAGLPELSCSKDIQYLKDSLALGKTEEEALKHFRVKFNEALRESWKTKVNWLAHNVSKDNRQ
- Sequence (P27986 whole entry partner): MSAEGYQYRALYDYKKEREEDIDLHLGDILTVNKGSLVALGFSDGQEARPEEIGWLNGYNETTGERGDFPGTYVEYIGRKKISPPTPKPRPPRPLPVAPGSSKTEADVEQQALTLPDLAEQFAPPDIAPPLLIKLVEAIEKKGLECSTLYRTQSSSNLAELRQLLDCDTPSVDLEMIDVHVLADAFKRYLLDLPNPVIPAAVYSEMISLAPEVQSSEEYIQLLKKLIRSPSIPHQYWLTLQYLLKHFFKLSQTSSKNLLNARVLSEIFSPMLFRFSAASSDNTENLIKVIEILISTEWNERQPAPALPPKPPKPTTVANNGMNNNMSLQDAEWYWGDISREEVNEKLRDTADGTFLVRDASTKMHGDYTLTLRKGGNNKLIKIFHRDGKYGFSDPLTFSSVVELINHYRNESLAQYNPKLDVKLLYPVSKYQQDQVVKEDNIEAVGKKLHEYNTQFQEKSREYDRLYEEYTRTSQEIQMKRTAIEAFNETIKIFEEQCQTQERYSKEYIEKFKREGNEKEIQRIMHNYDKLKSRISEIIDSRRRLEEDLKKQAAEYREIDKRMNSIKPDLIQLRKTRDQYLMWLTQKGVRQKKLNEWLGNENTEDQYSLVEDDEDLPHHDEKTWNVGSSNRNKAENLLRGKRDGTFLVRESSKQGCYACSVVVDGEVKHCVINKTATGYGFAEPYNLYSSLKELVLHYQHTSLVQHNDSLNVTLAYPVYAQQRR
value.kind: pIC50
Formally, pIC50 is defined as -log10 of the concentration c, with c in mol/L.

Completed entries (count: 3):
COC(=O)N[C@H]1CCN([C@H]2CC[C@H](Oc3cc(-n4c(C(F)F)nc5ccccc54)nc(N4CCOCC4)n3)CC2)C1=O: 8.31
CCOC(=O)N1CCN(c2ccc(CNc3nc(N4CCOCC4)cc(-n4c(C(F)F)nc5ccccc54)n3)cc2)CC1: 7.96
CC(C)(C)OC(=O)N1CCC(CNc2nc(N3CCOC[C@@H]3CF)cc(-n3c(C(F)F)nc4ccccc43)n2)CC1: 7.16

Short answer on UniProt:O00329 for COC(=O)N[C@H]1CCN([C@H]2CC[C@H](Nc3nc(N4CCOCC4)cc(-n4c(C(F)F)nc5ccccc54)n3)CC2)C1=O , pIC50: 7.47

Short answer on UniProt:O00329 for Fc1ccc(N2CCC(CNc3nc(N4CCOCC4)cc(-n4c(C(F)F)nc5ccccc54)n3)CC2)cc1 , pIC50: 7.60

###

Each item that follows carries a reported IC50.
- Tested on: Spleen cells prepared from male LEW/CrlCrlj rats (B cell proliferation)
- assay.remarks: Rat B cell proliferation inhibition test (anti-rat IgM, [3H]thymidine)
- Assay type: cell-based
- run.parameters: anti-rat IgM 3 μg/well, 48 hours culture
Counter-ions that a name gives are not always drawn.
Write down the numeric answer in nM and omit the unit.

Completed entries (count: 4):
CC(C)(O)CNC12CCC(CNc3nc(N4CCOCC4)cc(-n4c(C(F)F)nc5ccccc54)n3)(CC1)CC2: 2.6
CN1CC(C(=O)N2CC[C@H](Nc3cc(-n4c(C(F)F)nc5ccccc54)nc(N4CCOCC4)n3)C2)CC1=O (stereo partly shown): 1.8
COC(=O)N[C@@H]1CCN([C@H]2CC[C@H](Nc3nc(N4CCOCC4)cc(-n4c(C(F)F)nc5ccccc54)n3)CC2)C1=O: 1.8
FC(F)c1nc2ccccc2n1-c1cc(N2CCOCC2)nc(NCC2CCN([C@H]3CC[C@@H](F)CC3)CC2)n1 [Example 43-2, dihydrochloride]: 3.1

get_value(item= CCOC(=O)N[C@@H]1CCN([C@H]2CC[C@H](Oc3cc(-n4c(C(F)F)nc5ccccc54)nc(N4CCOCC4)n3)CC2)C1=O , readout=IC50) returns 3.1

get_value(item= O=C(C1CCOCC1)N1CC[C@H](Nc2cc(-n3c(C(F)F)nc4ccccc43)nc(N3CCOCC3)n2)C1 , readout=IC50) returns 2.6

get_value(item= O=C(CN1CCCCC1)N1CC[C@H](Nc2cc(-n3c(C(F)F)nc4ccccc43)nc(N3CCOCC3)n2)C1 , readout=IC50) returns 1.1

###

- System: Spleen cells prepared from male LEW/CrlCrlj rats (B cell proliferation)
- assay.remarks: Rat B cell proliferation inhibition test (anti-rat IgM, [3H]thymidine)
- Assay type: cell-based
- run.parameters: anti-rat IgM 3 μg/well, 48 hours culture
value.kind: IC50 (nM)
Write down the numeric answer in nM and omit the unit.

C[C@@H]1COCCN1c1cc(-n2c(C(F)F)nc3ccccc32)nc(NCC2CCN(C3CCOCC3)CC2)n1: 1.52
CN1CC(C(=O)N2CC[C@H](Oc3cc(-n4c(C(F)F)nc5ccccc54)nc(N4CCOCC4)n3)C2)CC1=O (stereo partly shown): 1.2
COC(=O)N[C@H]1CCN([C@H]2CC[C@H](Oc3cc(-n4c(C(F)F)nc5ccccc54)nc(N4CCOCC4)n3)CC2)C1=O: 3.5

In the following, a different compound is considered.
get_value(item= NC1(C(=O)N[C@H]2CC[C@H](Oc3cc(-n4c(C(F)F)nc5ccccc54)nc(N4CCOCC4)n3)CC2)CCC1 , readout=IC50) returns 6.7
